# IC50 listing for each entry below
tested.system: T1, soluble human TNFR2 (human, UniProt P20333 23-257)
T1 construct: also called soluble TNFR2
T1 sequence (looked up): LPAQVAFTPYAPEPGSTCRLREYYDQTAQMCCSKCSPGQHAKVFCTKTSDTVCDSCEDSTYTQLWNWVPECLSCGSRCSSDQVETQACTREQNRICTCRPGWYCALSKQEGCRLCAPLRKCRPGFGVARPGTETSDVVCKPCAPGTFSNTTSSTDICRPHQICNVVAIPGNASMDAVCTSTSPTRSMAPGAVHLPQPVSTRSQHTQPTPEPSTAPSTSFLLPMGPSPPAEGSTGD
assay: competition ELISA: plate-bound soluble human TNFR2, competitor biotinylated TNFα, streptavidin-HRP, A450
Procedure: Soluble human TNFR2 (Sino Biological, 10417-H08H) or cynomolgus TNFR2 (Sino Biological, 90102-C08H) was coated on Nunc-Immuno™ plates at 0.1 μg/ml, 0.5 ug/ml, 1 μg/ml, and 5 μg/ml. […] Plates were developed using TMB and stopped with 3 M HCl.
Quick reminder: number only, in nM, skip the unit.

- binder: "SBT-002 (antibody, V domains shown, Parental mouse antibody; also called mouse SBT-002) VH: QVTLKESGPGILQPSQTLSLTCSFSGFSLSTSGMGVGWIRQPSGKGLEWLAHIWWDDDKFYNPSLKSQLTISKDTSRNQVFLKLTSVVTADTATYYCARLTGTRYFDYWGQGTTLTVSS VL: DVQMTQSPSSLSASLGGKVTITCKASQDINKFIAWYQHKPGKGPRLLIHYTSTLQPGIPSKFSGSGSGRDYSFSISNLEPEDIATYYCLQYGNLWTFGGGTKLEIT"
  IC50, nM: 5.77

Problem: Recorded IC50 for chimeric SBT-004 (antibody, V domains shown, VH fused to a human IgG1 Fc domain; also called chSBT-004) VH: EVQLQQSGPEVGRPGSSVKISCKASGYTFTDYIMHWVKQSPGQGLEWIGWVDPEYGSTDYAEKFKKKATLTADTSSNTAYIQLSSLTSEDTATYFCARDDGSYSPFDYWGQGVMVTVSS VL: DIQMTQSPPSLSASLGDKVTITCQASQNINKYIAWYQQKPGKAPRLLIRYTSTLESGTPSRFSGSGSGRDYSFSISNVESEDIASYYCLQYVNLLTFGAGTKLEIK , please?
Result: 16.7

Problem: Record request: IC50 value, item chimeric SBT-003 (antibody, V domains shown, also called chSBT-003) VH: QIQLVQSGPELKKPGETVKISCKASGYTFTDYSMHWVKQAPGKGLKWMGWINTETGEPTYADDFKGRFAFSSETSTSTAYLQINNLKNDDTTTYFCATYYGSSYVPDYWGQGTSLTVSS VL: DIVMTQSHKFMSTSVGDRVSITCKASQNVGTAVAWYQHKPGQSPKLLIYWTSSRHTGVPDRFTGSGSGTEFTLTISNVQSEDLADYFCHQYSDYPYTFGGGTKLEIK
Result: 14.4

Problem: Form field: reported IC50 of chimeric SBT-002 (antibody, V domains shown, also called chSBT-002) VH: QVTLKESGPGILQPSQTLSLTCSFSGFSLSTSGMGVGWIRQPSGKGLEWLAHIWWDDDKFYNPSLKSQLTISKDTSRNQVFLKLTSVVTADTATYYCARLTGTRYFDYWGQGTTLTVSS VL: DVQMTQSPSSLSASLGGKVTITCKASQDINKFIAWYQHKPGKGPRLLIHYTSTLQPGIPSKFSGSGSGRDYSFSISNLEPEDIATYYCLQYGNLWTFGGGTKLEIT
Result: 7.53
